assay: Components of the Cytosolic LPS Sensing Pathway: Gene Identification via Genome-wide siRNA Screen; conditions: RAW264.7 macrophages, IL-1a HTRF, actives lie on both sides, screened at 100 nM (by protocol), cells primed 5 h with Pam3CSK4 first;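 also: robust z of the log signal after scaling to non-targeting control siRNA wells of the plate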
About 3,700 (7%) of roughly 53,000 sequences were called active. The sample as a whole holds a higher share of actives than the screen did.
Mark fulfilled for reported z-score of -0.6 or greater; mark not fulfilled for anything smaller.

SEQUENCE_STRING	LABEL_VALUE
GCCCUUUUCAUUCUCCAGATT against Zdhhc25	fulfilled
GGCCCUAAUAGCAACAGGATT against Ubqln2	not fulfilled
GGCGAGAAACCUUUCAGAUTT against Zic4	fulfilled
GGCCAAGCAUGUUUUGUCATT against Cep72	not fulfilled
CCAAAAGGUUCGAGUUUCATT against Padi4	fulfilled
GGUCCUGGACUUCAUGCUATT against Galnt6	fulfilled
GGACUUUGAAAAAGAUGCATT against Fkbp7	fulfilled
GGCAGAAAGCAGAAACAGUTT against Mok	not fulfilled
GGAUAUGGUUAAAGCCAAATT against Zg16	fulfilled
GCCCUAAUCUAUGGGACAUTT against Tmem179	fulfilled
GGACCAUUCUGAAGAGCAGTT against Il5ra	fulfilled
GCCACUCUUAGUGCUAACUTT against Tctn3	not fulfilled
GGAUAACCCUCAGAAGUCCTT against Was	fulfilled
CUCAAAAUCUGGUGAUAAATT against Adam34	fulfilled
GGGAAUUCUCCUGUUUGCUTT against Plp2	not fulfilled
GCACUGUUCUCAAAGUUAATT against Ddx3x	fulfilled
GGUAUUACAAGGUCAUAUCTT against Nol12	fulfilled
GGUGUUGGCUCACAACCAATT against Fam234b	not fulfilled
CGCAAGGACCGAUCUGAUGTT against Rnps1	not fulfilled
GGUGACUGACAACCAGACATT against Dkkl1	fulfilled
GGCAGAAAGCAAAAUGUUUTT against Gata3	not fulfilled
GGUCUGAGCUUCCAAUAACTT against Reep5	fulfilled
GGAAGAAGUUGGAGAUGUUTT against Hsd17b11	not fulfilled
CCGUGUAAGGUGUGGAGUGTT against Mcat	not fulfilled
GCACAUGGGAGACUAUGAATT against Necab2	not fulfilled

---

Each item that follows carries a reported z-score.
Assay: Components of the Cytosolic LPS Sensing Pathway: Gene Identification via Genome-wide siRNA Screen;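 also: robust z of the log signal after scaling to non-targeting control siRNA wells of the plate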
Conditions: RAW264.7 macrophages, IL-1a HTRF, actives lie on both sides, screened at 100 nM (by protocol), cells primed 5 h with Pam3CSK4 first
Procedure: Non-canonical inflammasome activation by cytosolic LPS is a critical component of the host response to Gram-negative bacterial infection, however we lack a comprehensive understanding of the cellular processes that control this pathway. […] Lipofectamine RNAiMAX Transfection Reagent ([…]; Invitrogen) was added in […] serum-free, antibiotic-free media to plate wells using a Thermo Scientific Matrix WellMate and Microplate Stacker. […] The plates were read on an EnVision plate reader (PerkinElmer). […]
Out of some 53,000 sequences screened, about 3,700 (7%) were called active. Only a selection was taken, and actives are over-represented in it overall.

SEQUENCE_STRING	z-score
CCCUAUUUGUCAGCGGUCUTT against Rbpms	-1.94
GGCUACUGUUGCUGCAUUUTT against Lin7c	-2.49
GCAAAUACUCAAGUUCAGATT against Cpt1b	0.382
GGACCUUCUUCAAGAAAGUTT against Olfr430	0.0987
GGCUAUCUACAAAAUGGUGTT against Vsnl1	-1.31
GGACUUCUUAAUGUUUUACTT against Phf11a	0.398
GGCUAAAUUAUUGCGCAAATT against C1qbp	2.34
GGUUUCGUACCAUGAAACATT against Stx2	-0.147
GGAGAUUUCCCGACUUAACTT against Tnip2	1.68
GGAAGAGAAUAGAUCCUAUTT against Zbtb8a	-0.388
CCACUAUUUAAUCUUACCGTT against Hoxc13	0.175
GGAAGAAAACAUUUAGCCCTT against Mmd2	0.504
GGGCCUUUAGUCCUCAAAGTT against Psmg3	0.387
GGACAUUUUCUUUGGAAAATT against Ccnl1	0.194
CCGUGAUAAUGUAACACCUTT against Prtg	0.0383
CGCCCAAAUUGACUAUUUGTT against Fam214b	0.351
GGUUAGAGGAAAGGUUUAUTT against Htr1f	5.07
GGCAGCUAGAGAGAAUCCUTT against Akr1c12	-2.45
GGUUUCUAUAAAUCUCCCUTT against Eif4b	0.895
GGUCACUUCAUCCAUAGCUTT against Atmin	-1.79
GGCAAUCUACUCAUUGUUGTT against Olfr1239	-0.719
GCACAUCACAAGAAUUACUTT against Lhfpl1	-0.0486
GGACAAUCAGUACCUUAACTT against Tex9	-0.375
GGCAAAGUAUAAAGAAGUATT against Gkap1	2.23
GGCGAACACCAUGAAAAGGTT against Lin7b	0.794
